Tested on: HepaRG
Experiment: LDH release cytotoxicity, % of total lysis control; higher = more cytotoxic
Conditions: 3.16228 µM; 48 h
Structures can show the parent of a compound that is named as a salt.
Below is a list of entries, each paired with its recorded LDH release cytotoxicity value.

{"compound": "CCC12COCN1COC2 [7a-Ethyldihydro-1H,3H,5H-oxazolo(3,4-c)oxazole]", "LDH release cytotoxicity [%]": -1.46}
{"compound": "O=C(O)c1cccc(C(=O)O)c1 [1,3-Benzenedicarboxylic acid]", "LDH release cytotoxicity [%]": -2.24}
{"compound": "C=C(C)C(=O)OCCC(F)(F)C(F)(F)C(F)(F)C(F)(F)C(F)(F)C(F)(F)F [6:2 Fluorotelomer methacrylate]", "LDH release cytotoxicity [%]": 0.38}
{"compound": "Nc1ccc2c(c1)C(=O)c1ccccc1C2=O [2-Aminoanthraquinone]", "LDH release cytotoxicity [%]": -1.62}
{"compound": "CN(C)CCCN1c2ccccc2Sc2ccc(Cl)cc21 [Chlorpromazine hydrochloride]", "LDH release cytotoxicity [%]": -1.62}
{"compound": "CCC1(c2ccccc2)C(=O)N=C(O)NC1=O (stereo not drawn) [Phenobarbital sodium]", "LDH release cytotoxicity [%]": -0.289}
{"compound": "O=C=NCCCCCCN=C=O [1,6-Diisocyanatohexane]", "LDH release cytotoxicity [%]": 0.0821}
{"compound": "Oc1ccccc1O [1,2-Benzenediol]", "LDH release cytotoxicity [%]": -2.9}
{"compound": "Clc1nc(Cl)c(Cl)c(Cl)c1Cl [Pentachloropyridine]", "LDH release cytotoxicity [%]": -0.873}
{"compound": "CCc1cc(C2=C(C(=O)O)N(c3ccccc3C(F)(F)F)S(=O)(=O)c3ccccc32)cc2c1OCO2 [Fandosentan potassium salt]", "LDH release cytotoxicity [%]": -0.525}
{"compound": "CN(CC(CC[N+]12CCC(C3CCCCC3)(CC1)CC2)c1ccc(Cl)c(Cl)c1)C(=O)c1cc(C(F)(F)F)cc(C(F)(F)F)c1 (stereo not drawn)", "LDH release cytotoxicity [%]": -1.45}
{"compound": "C#CC(O)C(CC)CCCC (stereo not drawn) [4-Ethyloct-1-yn-3-ol]", "LDH release cytotoxicity [%]": -0.91}
{"compound": "O=NN(c1ccccc1)c1ccccc1 [N-Nitrosodiphenylamine]", "LDH release cytotoxicity [%]": -0.54}
{"compound": "CCCCC(C#N)(Cn1cncn1)c1ccc(Cl)cc1 (stereo not drawn) [Myclobutanil]", "LDH release cytotoxicity [%]": -7.8}
{"compound": "CC(Oc1ccc(Cl)cc1Cl)C(=O)O (stereo not drawn) [Dichlorprop]", "LDH release cytotoxicity [%]": 0.35}
{"compound": "COC(=O)CCCC(=O)OC [Dimethyl glutarate]", "LDH release cytotoxicity [%]": -1.03}
{"compound": "COC(=O)c1ccc(I)cc1S(=O)(=O)NC(=O)Nc1nc(C)nc(OC)n1 [Iodosulfuron-methyl-sodium]", "LDH release cytotoxicity [%]": -0.16}
{"compound": "CCCCc1ccc2c(n1)C(c1ccc(OC)cc1CC(C)C(=O)O)C(C(=O)O)C2c1ccc2c(c1)OCO2 (stereo not drawn) [MK-547]", "LDH release cytotoxicity [%]": -0.888}

====

Test system: HepaRG
Assay: LDH release cytotoxicity, % of total lysis control; higher = more cytotoxic
Details: 1 µM; 48 h

{"compound": "Nc1nc(N)nc(NC2CC2)n1", "LDH release cytotoxicity [%]": -1.75}
{"compound": "CC(Oc1cccc(Cl)c1)C(=O)O (centres undefined)", "LDH release cytotoxicity [%]": -0.434}
{"compound": "CC(C)CCCCCCOC(=O)c1ccc(C(=O)OCCCCCCC(C)C)c(C(=O)OCCCCCCC(C)C)c1 [Triisononyl trimellitate]", "LDH release cytotoxicity [%]": -2.21}
{"compound": "O=P(Oc1ccccc1)(Oc1ccccc1)Oc1ccccc1 [Triphenyl phosphate]", "LDH release cytotoxicity [%]": -1.41}
{"compound": "O=C(NC(Cc1ccccc1)C(O)C(=O)N1CC(O)C(O)C1)c1cc2cc(Cl)ccc2[nH]1 (centres undefined)", "LDH release cytotoxicity [%]": -0.89}
{"compound": "CC1C(c2ccc(Cl)cc2)SC(=O)N1C(=O)NC1CCCCC1 (centres undefined)", "LDH release cytotoxicity [%]": -1.79}
{"compound": "O=C(NO)C1(NS(=O)(=O)c2ccc(Oc3ccc(F)cc3)cc2)CCOCC1", "LDH release cytotoxicity [%]": -0.54}
{"compound": "CCCCCCCCN(C)CCCCCCCC", "LDH release cytotoxicity [%]": -1.23}
{"compound": "NC(=O)Cn1c(=O)cc(CCN2CCN(c3nccc4sccc34)CC2)c2ccc(F)cc21", "LDH release cytotoxicity [%]": -2.79}
{"compound": "CCCCOC(=O)c1ccccc1C(=O)O [Monobutyl phthalate]", "LDH release cytotoxicity [%]": -3.09}
{"compound": "ClC1=C(Cl)C2(Cl)C3C4C=CC(C4)C3C1(Cl)C2(Cl)Cl (centres undefined)", "LDH release cytotoxicity [%]": -2.25}
{"compound": "CC12CCC3c4ccc(O)cc4CC(CCCCCCCCCS(=O)CCCC(F)(F)C(F)(F)F)C3C1CCC2O (centres undefined)", "LDH release cytotoxicity [%]": -1.01}
{"compound": "Oc1ccccc1O", "LDH release cytotoxicity [%]": -2.41}
{"compound": "CCc1cccc(CC)c1N(COC)C(=O)CCl", "LDH release cytotoxicity [%]": -2.4}
{"compound": "OCc1ccccc1", "LDH release cytotoxicity [%]": -2.41}
{"compound": "CCCC1=NC(=S)NC(=O)C1", "LDH release cytotoxicity [%]": -2.49}
{"compound": "Clc1ccc(Cl)cc1", "LDH release cytotoxicity [%]": -0.354}
{"compound": "CN(C)C1C(=O)C(C(N)=O)C(=O)C2(O)C(=O)C3C(=O)c4c(O)cccc4C(C)(O)C3C(O)C12 (centres undefined) [Oxytetracycline dihydrate]", "LDH release cytotoxicity [%]": -1.95}
{"compound": "c1cc[n+]2c(c1)-c1cccc[n+]1CC2 [Diquat dibromide monohydrate]", "LDH release cytotoxicity [%]": 0.472}

====

Tested on: HepaRG
Assay: LDH release cytotoxicity, % of total lysis control; higher = more cytotoxic
Details: 100 µM; 48 h

{"compound": "COC(=O)Nc1nc2ccccc2[nH]1 [Carbendazim]", "unit_abbreviation": "%", "LDH release cytotoxicity": 8.69}
{"compound": "c1ccc2ncccc2c1 [Quinoline]", "unit_abbreviation": "%", "LDH release cytotoxicity": 2.26}
{"compound": "O=C(NS(=O)(=O)C=Cc1cccs1)c1ccc(F)cc1Br", "unit_abbreviation": "%", "LDH release cytotoxicity": -0.319}
{"compound": "CCCCCCOCCO [2-Hexyloxyethanol]", "unit_abbreviation": "%", "LDH release cytotoxicity": 47.6}
{"compound": "COc1cc2c(c(OC)c1OC)-c1ccc(OC)c(=O)cc1C(NC(C)=O)CC2 (stereo unspecified) [Colchicine]", "unit_abbreviation": "%", "LDH release cytotoxicity": 5.06}
{"compound": "CC(C)C1(C)N=C(c2nc3ccccc3cc2C(=O)O)NC1=O (stereo unspecified) [Imazaquin]", "unit_abbreviation": "%", "LDH release cytotoxicity": 2.17}
{"compound": "CCCCCCCC(=O)OC [Methyl octanoate]", "unit_abbreviation": "%", "LDH release cytotoxicity": 0.214}
{"compound": "O=C(Nc1ccccc1)c1ccccc1I [Benodanil]", "unit_abbreviation": "%", "LDH release cytotoxicity": 12.4}
{"compound": "CCOC(=O)CCC(=O)OCC [Diethyl butanedioate]", "unit_abbreviation": "%", "LDH release cytotoxicity": 83.2}
{"compound": "C=CCc1ccc(OC)c(OC)c1 [Methyleugenol]", "unit_abbreviation": "%", "LDH release cytotoxicity": 0.911}
{"compound": "COC(=O)NS(=O)(=O)c1ccc(N)cc1 [Asulam]", "unit_abbreviation": "%", "LDH release cytotoxicity": 0.635}

====

Tested on: HepaRG
Assay: LDH release cytotoxicity, % of total lysis control; higher = more cytotoxic
Conditions: 0.1 µM; 48 h

{"compound": "CCCCCOC(=O)COc1cc(N2C(=O)C3=C(CCCC3)C2=O)c(F)cc1Cl", "LDH release cytotoxicity, %": -1.12}
{"compound": "CCCCCCC(C)OC(=O)COc1nc(F)c(Cl)c(N)c1Cl (centres undefined)", "LDH release cytotoxicity, %": -0.123}
{"compound": "CN(C)c1ccc(N=NS(=O)(=O)O)cc1", "LDH release cytotoxicity, %": -1.18}
{"compound": "Clc1cc(Cl)c(Cl)cc1Cl", "LDH release cytotoxicity, %": -1.29}
{"compound": "COC(=O)c1c(C(F)F)nc(C(F)(F)F)c(C2=NCCS2)c1CC(C)C", "LDH release cytotoxicity, %": -0.18}
{"compound": "CCCCCCCC[Si](OCC)(OCC)OCC", "LDH release cytotoxicity, %": 0.171}
{"compound": "Cn1c(=O)c2c(ncn2C)n(C)c1=O", "LDH release cytotoxicity, %": -0.664}
{"compound": "Cc1[nH]nc2c1N=C(c1ccccc1Cl)c1cc([N+](=O)[O-])ccc1N2", "LDH release cytotoxicity, %": -1.12}
{"compound": "c1ccc2c(c1)ccc1ccccc12", "LDH release cytotoxicity, %": -0.112}
{"compound": "OCC(CO)(CBr)CBr [Pentaerythritol dibromide]", "LDH release cytotoxicity, %": -1.43}
{"compound": "Cc1ccccc1O", "LDH release cytotoxicity, %": -1.22}
{"compound": "CC(C)(O)c1ccc(CNC(=O)c2cccnc2Oc2ccc3nonc3c2)cc1", "LDH release cytotoxicity, %": -0.0235}
{"compound": "CN(C)NC(=O)CCC(=O)O [Daminozide]", "LDH release cytotoxicity, %": -1.67}
{"compound": "CCCCCCCCCCCCc1ccccc1", "LDH release cytotoxicity, %": -1.71}
{"compound": "CCC(C)(C)C(=O)OC1=C(c2ccc(Cl)cc2Cl)C(=O)OC12CCCCC2", "LDH release cytotoxicity, %": -1.21}
{"compound": "CC(=O)c1ccccc1", "LDH release cytotoxicity, %": -2.44}
{"compound": "CC1(C)C(C=C(Cl)Cl)C1C(=O)OC(C#N)c1cccc(Oc2ccccc2)c1 (centres undefined)", "LDH release cytotoxicity, %": -1.77}
{"compound": "CCC1CC(N(Cc2cc(C(F)(F)F)cc(C(F)(F)F)c2)C(C)=O)c2cc(C(F)(F)F)ccc2N1C(=O)OC(C)C (centres undefined)", "LDH release cytotoxicity, %": 0.141}
{"compound": "CN1CCCC1=O", "LDH release cytotoxicity, %": -3.16}
{"compound": "O=C(NC(c1ccccc1)C1CCCCN1)c1cccc(C(F)(F)F)c1Cl (centres undefined)", "LDH release cytotoxicity, %": -1.57}
{"compound": "Cc1cnc(C2=NC(=O)C(C)(C(C)C)N2)c(C(=O)O)c1 (centres undefined)", "LDH release cytotoxicity, %": -2.27}
{"compound": "CCc1cccc(CC)c1N(COC)C(=O)CCl", "LDH release cytotoxicity, %": -1.83}
{"compound": "CCCCC(CC)COC(=O)CCCCCCCC(=O)OCC(CC)CCCC (centres undefined) [Bis(2-ethylhexyl) nonanedioate]", "LDH release cytotoxicity, %": -2.87}
{"compound": "CCOC(=O)COc1cc(-n2ncc(C(F)(F)F)c(C)c2=O)c(F)cc1Cl", "LDH release cytotoxicity, %": -1.45}
{"compound": "CON=C(C1=NOCCO1)c1ccccc1Oc1ncnc(Oc2ccccc2Cl)c1F", "LDH release cytotoxicity, %": -1.61}
{"compound": "CCC(c1ccc(O)cc1)C(CC)c1ccc(O)cc1 (centres undefined)", "LDH release cytotoxicity, %": -2.35}
{"compound": "CC(C)=CCC/C(C)=C\\CO", "LDH release cytotoxicity, %": -0.112}
{"compound": "Cc1nn(C)c(Oc2ccccc2)c1C=NOCc1ccc(C(=O)OC(C)(C)C)cc1 [Fenpyroximate (Z,E)]", "LDH release cytotoxicity, %": -1.6}
{"compound": "COC(=O)c1ccc(I)cc1S(=O)(=O)NC(=O)Nc1nc(C)nc(OC)n1 [Iodosulfuron-methyl-sodium]", "LDH release cytotoxicity, %": -0.389}
{"compound": "C=CCc1ccc2c(c1)OCO2", "LDH release cytotoxicity, %": -2.76}
{"compound": "CN1CCCC1c1cccnc1 (centres undefined)", "LDH release cytotoxicity, %": -2.6}
{"compound": "O=c1ccc2ccccc2o1", "LDH release cytotoxicity, %": -0.766}
{"compound": "CNC(=O)C1OC(n2cnc3c(NCc4cc(Cl)ccc4OCc4cc(C)no4)ncnc32)C(O)C1N (centres undefined)", "LDH release cytotoxicity, %": -1.47}
{"compound": "[As]#[In] [Indium arsenide]", "LDH release cytotoxicity, %": -0.971}
{"compound": "CCCCC(O)(Cn1cncn1)c1ccc(Cl)cc1Cl (centres undefined)", "LDH release cytotoxicity, %": -0.668}
{"compound": "CC12CC1(C)C(=O)N(c1cc(Cl)cc(Cl)c1)C2=O (centres undefined)", "LDH release cytotoxicity, %": -1.85}
{"compound": "CC(C)c1cccc(C(C)C)c1", "LDH release cytotoxicity, %": -2.55}
{"compound": "Clc1ccc(Cl)cc1", "LDH release cytotoxicity, %": -1.22}
{"compound": "CC12CCC3c4ccc(O)cc4CC(CCCCCCCCCS(=O)CCCC(F)(F)C(F)(F)F)C3C1CCC2O (centres undefined)", "LDH release cytotoxicity, %": -1.62}

Just for reference, the supplement of paper PMC7840683 is where these values come from.
